Biological target: κ opioid receptor (Homo sapiens (Human), UniProt P41145)
Test: κ-opioid receptor [35S]GTPγS functional assay, U-2 OS cells
Format: biochemical
Readout: pEC50
Answers are plain numbers, as −log10 of the molar value.

CN1CC[C@]23C[C@@]4(CC[C@@]2(O)[C@H]1Cc1ccc(O)cc13)C(=O)NC(=O)N4CC1CC1 [Compound 66] : 5.33
CCN1C(=O)N(Cc2ccc(O)cc2)C(=O)[C@@]12CC[C@@]1(O)[C@H]3Cc4ccc(O)cc4[C@@]1(CCN3CC1CC1)C2 [Compound 48] : 8.58
O=C1N[C@]2(CC[C@@]3(O)[C@H]4Cc5ccc(O)cc5[C@@]3(CCN4CC3CC3)C2)C(=O)N1Cc1ccc(O)cc1 [Compound 47] : 8.92
CCN1CC[C@]23C[C@]4(CC[C@@]2(O)[C@H]1Cc1ccc(O)cc13)NC(=O)NC4=O [Compound 29] : 6.60
CCN1C(=O)NC(=O)[C@@]12CC[C@@]1(O)[C@H]3Cc4ccc(O)cc4[C@@]1(CCN3CC1CC1)C2 [Compound 49] : 8.74

Give one value of pEC50 per listed compound.
1. CC(C)CCN1CC[C@]23C[C@]4(CC[C@@]2(O)[C@H]1Cc1ccc(O)cc13)NC(=O)NC4=O [Compound 28]
2. CCN1C(=O)N[C@]2(CC[C@@]3(O)[C@H]4Cc5ccc(O)cc5[C@@]3(CCN4CC)C2)C1=O [Compound 31]
3. O=C1NC(=O)[C@@]2(CC[C@@]3(O)[C@H]4Cc5ccc(O)cc5[C@@]3(CCN4CCF)C2)N1 [Compound 30]

1. 6.22
2. 6.35
3. 7.42
